Target: 14-3-3ζ (Homo sapiens)
Construct: made in house
Sequence (P63104 1-245): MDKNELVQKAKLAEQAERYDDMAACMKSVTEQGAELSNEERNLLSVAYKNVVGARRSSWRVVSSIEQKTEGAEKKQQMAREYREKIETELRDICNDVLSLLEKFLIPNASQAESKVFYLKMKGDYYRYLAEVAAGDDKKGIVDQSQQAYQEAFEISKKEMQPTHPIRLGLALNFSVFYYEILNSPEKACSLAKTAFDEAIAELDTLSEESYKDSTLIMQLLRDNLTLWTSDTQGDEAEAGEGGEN
Experiment: 14-3-3 phosphorylation by PKA catalytic subunit (autoradiography)
Format: biochemical
Settings: 50 μM lipid delivered in 0.1% ethanol
MEASURE NAME: phosphorylation of 14-3-3ζ on Ser58 by PKA catalytic subunit

| COMPOUND | EXPERIMENTAL VALUE |
| --- | --- |
| CCCCCCCCCCCCCCC[C@@H](O)[C@@H](N)CO [dihydro-sphingosine, D-erythro-dihydro-sphingosine] | allowed phosphorylation |
| CCCCCCCCCCCCCC[C@@H](O)[C@@H](O)[C@@H](N)CO | allowed phosphorylation |
| CCCCCCCCCCCCC/C=C/[C@@H](O)[C@H](CO)[N+](C)(C)C | allowed phosphorylation |
